- Tested on: Thromboxane-A synthase (Oryctolagus cuniculus)
- method-summary: Tested for inhibition of thromboxane A2 (TXA2) production in rabbit by in vitro assay at 1 uM
reported-endpoint: inhibition (%)

Below, each entry is followed by its recorded inhibition result.
record-smiles	inhibition / %
COc1ccc(-c2nn(CCn3ccnc3)c(=O)c3ccccc23)cc1OC	27
O=c1c2ccccc2c(-c2ccc(F)cc2)nn1CCn1ccnc1	33
O=c1c2ccccc2c(-c2ccccc2)nn1CCCCCn1ccnc1	69
O=c1c2ccccc2c(-c2ccc(Cl)s2)nn1CCn1ccnc1	47

[A] O=c1c2ccccc2c(-c2ccccc2)nn1CCCCCCCCn1ccnc1
[B] O=c1c2ccccc2c(-c2ccccc2)nn1CCn1ccnc1
[C] Cc1nn(CCn2ccnc2)c(=O)c2ccccc12
Incoming: Sort these compounds on inhibition so the largest reading comes first. # output: labels, in the requested order
Outgoing: A, B, C
(A: 63%, B: 41%, C: 10%)

[a] CCOC(=O)c1cccc(-c2nn(CCn3ccnc3)c(=O)c3ccccc23)c1
[b] O=c1c2ccccc2c(-c2ccccc2)nn1CCCCCCn1ccnc1
Incoming: # argmax over inhibition for candidates a and b Answer format: the label of the selected item.
Outgoing: b

###

- tested-on: Thromboxane-A synthase (Rattus norvegicus) (UniProt P49430)
- Sequence (P49430 whole entry): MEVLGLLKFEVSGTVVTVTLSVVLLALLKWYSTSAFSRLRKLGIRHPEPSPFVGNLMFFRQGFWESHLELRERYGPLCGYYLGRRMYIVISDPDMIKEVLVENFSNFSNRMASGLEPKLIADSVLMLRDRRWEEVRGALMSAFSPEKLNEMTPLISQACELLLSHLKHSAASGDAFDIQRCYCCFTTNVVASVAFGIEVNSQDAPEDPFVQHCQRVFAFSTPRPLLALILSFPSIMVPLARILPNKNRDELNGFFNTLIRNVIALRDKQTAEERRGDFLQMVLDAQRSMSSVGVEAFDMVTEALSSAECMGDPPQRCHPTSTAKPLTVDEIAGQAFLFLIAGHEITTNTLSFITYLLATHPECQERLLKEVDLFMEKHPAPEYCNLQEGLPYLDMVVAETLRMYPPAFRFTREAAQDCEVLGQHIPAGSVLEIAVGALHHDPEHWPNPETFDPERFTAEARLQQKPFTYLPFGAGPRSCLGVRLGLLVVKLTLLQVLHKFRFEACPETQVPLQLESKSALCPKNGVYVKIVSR
- method-summary: Tested for inhibition of thromboxane A2 (TXA2) production in rat serum by ex vivo assay after peroral dose of 30 mg/kg
- Format: functional, organism-based
- Design: dose 30 mg/kg
reported-endpoint: inhibition (%)

record-smiles	value-units	inhibition
COc1ccc(-c2nn(CCn3ccnc3)c(=O)c3ccccc23)cc1	%	50
CCOC(=O)c1cccc(-c2nn(CCn3ccnc3)c(=O)c3ccccc23)c1	%	0

[P] CC(=O)c1ccc(-c2nn(CCn3ccnc3)c(=O)c3ccccc23)s1
[Q] O=c1c2ccccc2c(-c2ccncc2)nn1CCn1ccnc1
Incoming: I would appreciate it if you could say which entry, P or Q , has the lower inhibition value. Output the label that corresponds to your choice.
Outgoing: P

FYI, the data here is from ChEMBL document CHEMBL1126556.
